# credit: patent US20190125888A1

assay: Ligand charge of maytansinoid conjugates; type: physicochemical
Ligand charge listing for selected molecules.
outcome measure: Ligand charge

molecule	reported measurement
COc1cc2cc(c1Cl)N(C)C(=O)C[C@H](OC(=O)[C@H](C)N(C)C(=O)CCSSCCNC(=O)CC[C@H]1C(=O)N[C@@H](Cc3ccc(O)cc3)C(=O)N[C@H](Cc3c[nH]c4ccccc34)C(=O)N[C@@H](CCCCNC(=O)NCCCCCCN)C(=O)N[C@@H]([C@@H](C)O)C(=O)N[C@@H](Cc3ccccc3)C(=O)N1C)[C@]1(C)O[C@H]1[C@H](C)[C@@H]1C[C@@](O)(NC(=O)O1)[C@H](OC)/C=C/C=C(\C)C2 [Conjugate 55]	+1
COc1cc2cc(c1Cl)N(C)C(=O)C[C@H](OC(=O)[C@H](C)N(C)C(=O)CCSSC[C@H](NC(=O)[C@@H]1CSSC[C@H](NC(=O)[C@@H](Cc3ccccc3)NC(=O)NCc3ccccc3)C(=O)N[C@@H](Cc3ccc(O)cc3)C(=O)N[C@H](Cc3c[nH]c4ccccc34)C(=O)N[C@@H](CCCCN)C(=O)N[C@@H]([C@@H](C)O)C(=O)N1)C(N)=O)[C@]1(C)O[C@H]1[C@H](C)[C@@H]1C[C@@](O)(NC(=O)O1)[C@H](OC)/C=C/C=C(\C)C2 [Conjugate 28]	+1
CCNC(=O)N[C@H](Cc1ccccc1)C(=O)N[C@H]1CSSC[C@@H](C(=O)N[C@H](C(=O)N2CCCCC2)C(C)(C)SSCCC(=O)N(C)[C@@H](C)C(=O)O[C@H]2CC(=O)N(C)c3cc(cc(OC)c3Cl)C/C(C)=C/C=C/[C@@H](OC)[C@@]3(O)C[C@H](OC(=O)N3)[C@@H](C)[C@@H]3O[C@@]23C)NC(=O)[C@H]([C@@H](C)O)NC(=O)[C@H](CCCCN)NC(=O)[C@@H](Cc2c[nH]c3ccccc23)NC(=O)[C@H](Cc2ccc(O)cc2)NC1=O [Conjugate 33]	+1

###

Measured chromatographic logP, listed per entry.
assay: Chrom LogP of maytansinoid conjugates; format: physicochemical

compound	chromatographic logP
COc1cc2cc(c1Cl)N(C)C(=O)C[C@H](OC(=O)[C@H](C)N(C)C(=O)CCSSC(C)(C)[C@H](NC(=O)[C@@H]1CSSC[C@H](NC(=O)[C@@H](Cc3ccccc3)NC(=O)Nc3ccccc3)C(=O)N[C@@H](Cc3ccc(O)cc3)C(=O)N[C@H](Cc3c[nH]c4ccccc34)C(=O)N[C@@H](CCCCN)C(=O)N[C@@H]([C@@H](C)O)C(=O)N1)C(N)=O)[C@]1(C)O[C@H]1[C@H](C)[C@@H]1C[C@@](O)(NC(=O)O1)[C@H](OC)/C=C/C=C(\C)C2 [Conjugate 11]	2.98
CCNC(=O)N[C@H](Cc1ccccc1)C(=O)N[C@H]1CSSC[C@@H](C(=O)N[C@H](C(N)=O)C(C)(C)SSCCC(=O)N(C)[C@@H](C)C(=O)O[C@H]2CC(=O)N(C)c3cc(cc(OC)c3Cl)C/C(C)=C/C=C/[C@@H](OC)[C@@]3(O)C[C@H](OC(=O)N3)[C@@H](C)[C@@H]3O[C@@]23C)NC(=O)[C@H]([C@@H](C)O)NC(=O)[C@H](CCCCN)NC(=O)[C@@H](Cc2c[nH]c3ccccc23)NC(=O)[C@H](Cc2ccc(O)cc2)NC1=O [Conjugate 13]	2.67
COc1cc2cc(c1Cl)N(C)C(=O)C[C@H](OC(=O)[C@H](C)N(C)C(=O)CCSSC(C)(C)[C@H](NC(=O)[C@@H]1CSSC[C@H](NC(=O)[C@H](N)Cc3ccccc3)C(=O)N[C@@H](Cc3ccc(O)cc3)C(=O)N[C@H](Cc3c[nH]c4ccccc34)C(=O)N[C@@H](CCCCNC(=O)NCCCCCCN)C(=O)N[C@@H]([C@@H](C)O)C(=O)N1)C(N)=O)[C@]1(C)O[C@H]1[C@H](C)[C@@H]1C[C@@](O)(NC(=O)O1)[C@H](OC)/C=C/C=C(\C)C2 [Conjugate 57]	2.12
COc1cc2cc(c1Cl)N(C)C(=O)C[C@H](OC(=O)[C@H](C)N(C)C(=O)CCSSC(C)(C)[C@H](NC(=O)[C@@H]1CSSC[C@H](NC(=O)[C@@H](Cc3ccccc3)NCc3ccccc3)C(=O)N[C@@H](Cc3ccc(O)cc3)C(=O)N[C@H](Cc3c[nH]c4ccccc34)C(=O)N[C@@H](CCCCN)C(=O)N[C@@H]([C@@H](C)O)C(=O)N1)C(N)=O)[C@]1(C)O[C@H]1[C@H](C)[C@@H]1C[C@@](O)(NC(=O)O1)[C@H](OC)/C=C/C=C(\C)C2 [Conjugate 12]	2.57
COc1cc2cc(c1Cl)N(C)C(=O)C[C@H](OC(=O)[C@H](C)N(C)C(=O)CCSSC(C)(C)[C@H](NC(=O)[C@@H]1CSSC[C@H](NC(=O)[C@@H](Cc3ccccc3)NS(=O)(=O)Cc3ccc(C(F)(F)F)cc3)C(=O)N[C@@H](Cc3ccc(O)cc3)C(=O)N[C@H](Cc3c[nH]c4ccccc34)C(=O)N[C@@H](CCCCN)C(=O)N[C@@H]([C@@H](C)O)C(=O)N1)C(N)=O)[C@]1(C)O[C@H]1[C@H](C)[C@@H]1C[C@@](O)(NC(=O)O1)[C@H](OC)/C=C/C=C(\C)C2 [Conjugate 14]	3.23
